Reported minimum viability across doses values for a set of compounds
Test system: CAKI-1
PROCEDURE_DETAILS: minimum viability across doses, drug alone, relative to DMSO (fraction); higher = less growth inhibition
PROTOCOL_CONDITIONS: treatment: drug alone; 5 days
Give only the figure.

Here are 10 compounds together with their reported answers.
INSERT INTO assay_data (compound, target_under_test, test_result) VALUES
  ('CC(C)(C)c1nc(-c2cccc(NS(=O)(=O)c3c(F)cccc3F)c2F)c(-c2ccnc(N)n2)s1', 'CAKI-1', 0.163),
  ('CN1CC[C@H](c2c(O)cc(O)c3c(=O)cc(-c4ccccc4Cl)oc23)[C@H](O)C1.Cl [Flavopiridol hydrochloride]', 'CAKI-1', 0.0716),
  ('Cc1ccc(NC(=O)c2cccc(N(C)C)c2)cc1NC(=O)c1ccc(O)cc1', 'CAKI-1', 0.984),
  ('Nc1cccc2c1CN(C1CCC(=O)NC1=O)C2=O (stereo not drawn) [Lenalidomide (Revlimid)]', 'CAKI-1', 0.972),
  ('C=CC(=O)N1CCC[C@@H](n2nc(-c3ccc(Oc4ccccc4)cc3)c3c(N)ncnc32)C1', 'CAKI-1', 0.335),
  ('CS(=O)c1ccc(-c2nc(-c3ccc(F)cc3)c(-c3ccncc3)[nH]2)cc1 (stereo not drawn)', 'CAKI-1', 0.931),
  ('CCOC(=O)C1=C(N)Oc2ccc(Br)cc2[C@H]1[C@H](C#N)C(=O)OCC', 'CAKI-1', 0.957),
  ('COc1ccc(S(=O)(=O)N(C(C)=O)c2ccccc2/C=C/c2cc[n+]([O-])cc2)cc1', 'CAKI-1', 0.182),
  ('CC(C)(C)Cn1c(N)nc2ccc(-c3[nH]c(C(C)(C)C)nc3-c3ccc(F)cc3)nc21.CS(=O)(=O)O.CS(=O)(=O)O', 'CAKI-1', 0.512),
  ('CN1CCN(c2ccc3nc(-c4c(N)c5c(F)cccc5[nH]c4=O)[nH]c3c2)CC1', 'CAKI-1', 0.13);

The compound listed as COc1ccc(COc2cc3oc(=O)c4cc(C(C)O)ccc4c3cc2OC)cc1 (stereo not drawn) has a reported minimum viability across doses of 0.668

The compound listed as `CCN1CCN(C(=O)Cc2ccc(Nc3ncc(F)c(Nc4ccc(C(=O)Nc5ccccc5Cl)cc4)n3)cc2)CC1` has a reported minimum viability across doses of 0.00638

The compound listed as `Nc1nc(NCCNc2ncc(-n3ccnc3)c(-c3ccc(Cl)cc3Cl)n2)ccc1[N+](=O)[O-]` has a reported minimum viability across doses of 0.211

The compound listed as Nc1cccc2c1C(=O)N(C1CCC(=O)NC1=O)C2=O (stereo not drawn) [Pomalidomide] has a reported minimum viability across doses of 0.924

The compound listed as `CCn1c(N)c(C(=O)NC)c(=O)c2ccc(C#C[C@@](C)(O)COC)nc21` has a reported minimum viability across doses of 0.845

The compound listed as `CNC(=O)c1cc(Oc2ccc(NC(=O)Nc3ccc(Cl)c(C(F)(F)F)c3)c(F)c2)ccn1` has a reported minimum viability across doses of 0.363

The compound listed as Cc1cc(C(C)Nc2ccccc2)c2nc(N3CCOCC3)cc(=O)n2c1 (stereo not drawn) has a reported minimum viability across doses of 0.49

The compound listed as `O=C1Nc2ccccc2/C1=C1/Nc2ccccc2C1=O` has a reported minimum viability across doses of 0.762

The compound listed as `C[C@@H](Oc1cc(-n2cnc3ccc(CN4CCN(C)CC4)cc32)sc1C(N)=O)c1ccccc1C(F)(F)F` has a reported minimum viability across doses of 0.17

The compound listed as `COc1cc(Nc2ncc(F)c(Nc3ccc4c(n3)N(COP(=O)(O)O)C(=O)C(C)(C)O4)n2)cc(OC)c1OC` has a reported minimum viability across doses of 0.0246
